B1: EHEE_rd4_0726 (parent)
chain: DIEITTNGEEDAKRVIKELQKRNLEYHIEVHGNQWVIKVR

Variants of: B1
protocol details: folding stability dG (cDNA display proteolysis); higher = more stable
test parameters: PBS, room temperature
measured quantity: folding stability dG (kcal/mol)

>>> recorded_measurement("R22N")
1.97
>>> recorded_measurement("I4G")
-0.292
>>> recorded_measurement("I4S")
0.002
>>> recorded_measurement("E10F")
2.05
>>> recorded_measurement("A12S")
1.28
>>> recorded_measurement("H27V")
2.86
>>> recorded_measurement("K38S")
1.94
>>> recorded_measurement("R40K")
2.63
>>> recorded_measurement("V30I")
2.72
>>> recorded_measurement("Q20I")
2.77
>>> recorded_measurement("W35R")
0.717
>>> recorded_measurement("H31R")
2.97
>>> recorded_measurement("E29F")
2.27
>>> recorded_measurement("E18Y")
2.87
>>> recorded_measurement("N7L")
2.47
>>> recorded_measurement("R22M")
2.66
>>> recorded_measurement("E9P")
2.46
>>> recorded_measurement("T5N")
1.75
>>> recorded_measurement("H27G")
1.59
>>> recorded_measurement("Q20W")
1.79
>>> recorded_measurement("E25N")
2.28
>>> recorded_measurement("V30D")
0.526
>>> recorded_measurement("V30E")
1.16
>>> recorded_measurement("T6G")
2.65
>>> recorded_measurement("K13M")
2.96
>>> recorded_measurement("V36I")
2.7
>>> recorded_measurement("K38G")
0.141
>>> recorded_measurement("I2E")
1.54
>>> recorded_measurement("W35H")
0.787
>>> recorded_measurement("G8Y")
1.92
>>> recorded_measurement("L19K")
-0.438
>>> recorded_measurement("I28K")
-0.291
>>> recorded_measurement("N33V")
1.76
